system: Human Myeloma Cell Lines (HMCLs); assay: CellTiter-Glo cell viability, IC50 in human myeloma cell lines; format: cell-based; conditions: Homo sapiens; 10 HMCLs (FIG. 6A); read-out: IC50 of Pyridostatin
readout: IC50

INSERT INTO measurements (compound, test_target, recorded_value) VALUES
  ('NCCOc1cc(C(=O)Nc2cc(OCCN)c3ccccc3n2)nc(C(=O)Nc2cc(OCCN)c3ccccc3n2)c1 [Pyridostatin]', 'Human Myeloma Cell Lines (HMCLs)', '≤ 2000 nM');
